Values compiled from ChEMBL document CHEMBL4334522.

biological target: Procathepsin L (Homo sapiens, UniProt P07711); test: Inhibition of human Cathepsin L assessed as first-order rate constant using Cbz-Phe-Arg-AMC as substrate by fluorescence assay
Sequence (P07711 114-333 limits assumed): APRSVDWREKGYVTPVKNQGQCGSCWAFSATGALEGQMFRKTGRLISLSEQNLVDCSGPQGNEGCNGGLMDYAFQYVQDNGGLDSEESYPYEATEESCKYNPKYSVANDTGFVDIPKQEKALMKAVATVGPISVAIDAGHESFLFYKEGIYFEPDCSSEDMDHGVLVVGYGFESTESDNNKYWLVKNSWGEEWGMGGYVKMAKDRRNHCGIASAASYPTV
VALUE KIND: Kinact (min⁻¹)
One number for each entry, in min⁻¹.

Recorded results for 6 compounds are shown here.
| SMILES RECORD | UNIT TEXT | QUANTITATIVE READOUT |
| --- | --- | --- |
| CC(=O)/C=C/[C@H](CCc1ccccc1)NC(=O)[C@H](Cc1ccccc1)NC(=O)Cc1ccc2c(c1)OCO2 | min⁻¹ | 0.0053 |
| CC(=O)/C=C/[C@H](CCc1ccccc1)NC(=O)[C@H](Cc1ccccc1)NC(=O)c1c(F)cccc1F | min⁻¹ | 0.002 |
| CC(=O)/C=C/[C@H](CCc1ccccc1)NC(=O)[C@H](Cc1ccccc1)NC(=O)c1ccc(F)cc1 | min⁻¹ | 0.0018 |
| CC(=O)/C=C/[C@H](CCc1ccccc1)NC(=O)[C@H](CCc1ccccc1)NC(=O)OCc1ccccc1 | min⁻¹ | 0.0056 |
| CC(=O)/C=C/[C@H](CCc1ccccc1)NC(=O)[C@H](Cc1ccccc1)NC(=O)c1cc(F)cc(F)c1 | min⁻¹ | 0.0022 |
| CC(=O)/C=C/[C@H](CCc1ccccc1)NC(=O)[C@H](Cc1ccccc1)NC(=O)N1CCN(C)CC1 | min⁻¹ | 0.0047 |

Report Kinact for each item below.
1. CC(=O)/C=C/[C@H](CCc1ccccc1)NC(=O)[C@H](Cc1ccccc1)NC(=O)c1ccc2c(c1)OCCO2
2. CC(=O)/C=C/[C@H](CCc1ccccc1)NC(=O)[C@H](Cc1ccccc1)NC(=O)c1cccc(F)c1

stdout:
0.0076
0.0019

====

target: Procathepsin L (Homo sapiens, UniProt P07711); experiment: Inhibition of human Cathepsin L assessed as second order rate constant obtained from ratio of Kinact to Ki using Cbz-Phe-Arg-AMC as substrate by fluorescence assay
Classify as follows. Reported K greater than or equal to 40 ×10³ /M/min: Fulfilled. Reported K below: Not fulfilled.

// below: answered compounds
| SMILES RECORD | GROUP |
| --- | --- |
| CC(=O)/C=C/[C@H](CCc1ccccc1)NC(=O)[C@H](Cc1ccccc1)NC(=O)Cc1ccc2c(c1)OCO2 | Fulfilled |
| CC(=O)/C=C/[C@H](CCc1ccccc1)NC(=O)[C@H](CCc1ccccc1)NC(=O)OCc1ccccc1 | Not fulfilled |

stdin: Decide: K of CC(=O)/C=C/[C@H](CCc1ccccc1)NC(=O)[C@H](Cc1ccccc1)NC(=O)c1ccc2c(c1)OCO2 >= 40 ×10³ /M/min?
stdout: Fulfilled

stdin: Decide: K of CC(=O)/C=C/[C@H](CCc1ccccc1)NC(=O)[C@H](Cc1ccccc1)NC(=O)N1CCOCC1 >= 40 ×10³ /M/min?
stdout: Not fulfilled

stdin: Decide: K of CC(=O)/C=C/[C@H](CCc1ccccc1)NC(=O)[C@H](Cc1ccccc1)NC(=O)c1cc(F)cc(F)c1 >= 40 ×10³ /M/min?
stdout: Fulfilled

stdin: Decide: K of CC(=O)/C=C/[C@H](CCc1ccccc1)NC(=O)[C@H](Cc1ccccc1)NC(=O)c1ccc(F)cc1F >= 40 ×10³ /M/min?
stdout: Fulfilled

====

I'd be grateful if you could share measured Ki for these entries.
target: Rhodesain (Trypanosoma brucei rhodesiense, UniProt Q95PM0)
Sequence (Q95PM0 whole entry): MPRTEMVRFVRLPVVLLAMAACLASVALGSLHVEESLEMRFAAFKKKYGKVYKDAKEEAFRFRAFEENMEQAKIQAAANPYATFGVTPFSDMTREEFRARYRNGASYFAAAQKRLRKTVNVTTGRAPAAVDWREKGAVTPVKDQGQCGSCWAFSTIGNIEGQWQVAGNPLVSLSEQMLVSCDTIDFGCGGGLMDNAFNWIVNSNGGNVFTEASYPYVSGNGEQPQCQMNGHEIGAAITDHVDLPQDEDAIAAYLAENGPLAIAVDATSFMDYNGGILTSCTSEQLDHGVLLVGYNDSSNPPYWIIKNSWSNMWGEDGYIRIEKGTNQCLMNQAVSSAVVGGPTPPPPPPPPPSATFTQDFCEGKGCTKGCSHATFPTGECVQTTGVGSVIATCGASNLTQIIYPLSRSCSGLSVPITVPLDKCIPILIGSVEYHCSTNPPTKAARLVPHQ

Recorded results for 5 compounds are shown here.
| SMILES RECORD | Ki |
| --- | --- |
| CC(=O)/C=C/[C@H](CCc1ccccc1)NC(=O)[C@H](Cc1ccccc1)NC(=O)c1ccc(F)cc1 | 0.0011 nM |
| CC(=O)/C=C/[C@H](CCc1ccccc1)NC(=O)[C@H](Cc1ccccc1)NC(=O)c1ccc(Cl)cc1 | 0.029 nM |
| CC(=O)/C=C/[C@H](CCc1ccccc1)NC(=O)[C@H](Cc1ccccc1)NC(=O)c1ccc(F)cc1F | 0.0006 nM |
| CC(=O)/C=C/[C@H](CCc1ccccc1)NC(=O)[C@H](Cc1ccccc1)NC(=O)c1ccc2c(c1)OCO2 | 0.034 nM |
| CC(=O)/C=C/[C@H](CCc1ccccc1)NC(=O)[C@H](Cc1ccccc1)NC(=O)c1ccc2c(c1)OCCO2 | 0.74 nM |

Report Ki for each item below.
1. CC(=O)/C=C/[C@H](CCc1ccccc1)NC(=O)[C@H](Cc1ccccc1)NC(=O)Cc1ccc2c(c1)OCO2
2. CC(=O)/C=C/[C@H](CCc1ccccc1)NC(=O)[C@H](Cc1ccccc1)NC(=O)N1CCOCC1
3. CCC(=O)/C=C/[C@H](CCc1ccccc1)NC(=O)[C@H](Cc1ccccc1)NC(=O)OCc1ccccc1

stdout:
2.1 nM
3.1 nM
0.5 nM
